Target: Monocarboxylate transporter 1 (Homo sapiens)
Sequence (P53985 whole entry): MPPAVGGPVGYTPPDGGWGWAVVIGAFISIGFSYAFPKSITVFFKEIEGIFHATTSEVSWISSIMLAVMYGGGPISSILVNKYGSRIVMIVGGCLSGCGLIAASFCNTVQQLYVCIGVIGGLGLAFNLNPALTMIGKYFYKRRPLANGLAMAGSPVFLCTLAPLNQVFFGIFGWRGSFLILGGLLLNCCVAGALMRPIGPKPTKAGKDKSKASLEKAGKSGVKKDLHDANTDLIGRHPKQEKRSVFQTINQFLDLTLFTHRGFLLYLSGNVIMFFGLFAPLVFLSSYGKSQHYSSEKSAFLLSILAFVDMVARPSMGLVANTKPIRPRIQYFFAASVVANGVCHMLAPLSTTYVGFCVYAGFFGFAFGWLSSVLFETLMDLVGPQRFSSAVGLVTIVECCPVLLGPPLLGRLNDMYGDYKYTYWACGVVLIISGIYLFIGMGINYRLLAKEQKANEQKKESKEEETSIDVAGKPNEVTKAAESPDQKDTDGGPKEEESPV
Experiment: Displacement of [3H]5-[(3-hydroxypropyl)thio]-3-methyl-1-[2-(methyl-t)propyl-2,3-t2]-6-(1-naphthalenylmethyl)-1H-pyrrolo[3,4-d]pyrimidine-2,4(3H,6H)-dione from MCT1 in human Jurkat cell membranes
outcome measure: Ki (nM)

A = CC(C)Cn1c(=O)n(C)c(=O)c2c(C(=O)N3CC=CC3)c(Cc3ccccc3C(F)(F)F)sc21
B = CC(C)Cn1c(=O)n(C)c(=O)c2cn(Cc3cccc4ccccc34)cc21
Prompt: Hey, between A and B which has a smaller measured Ki? When you have decided, please share the label of that item.
Completion: A
(A: 3.39 nM, B: 15.5 nM)
